# testTarget: T1, HLA-A*24
# T1 construct: Monomers captured on streptavidin plates; also called peptide-receptive MHC molecules; MHC complexes
# protocolText: UV peptide-exchange ELISA (anti-b2m); yield grade ++++ = >75%
This listing pairs binders with measured peptide exchange yield.

>>> valuereported("KYVDINTFRL (also called KYVDINTFRL) [MMP12-018]")
"> 75%"
>>> valuereported("TYATHVTEI (also called TYATHVTEI) [CCR8-004]")
"> 75%"
>>> valuereported("KYNRQSMTL (also called KYNRQSMTL) [APOB-080]")
"> 75%"

So what does the record say about peptide exchange yield for VLQGEFFLF (also called VLQGEFFLF) [KBTBD8-005] ?
> 75%

So what does the record say about peptide exchange yield for PEYSLPVLTF (also called PEYSLPVLTF) [PTP-040] ?
> 75%

So what does the record say about peptide exchange yield for KYKDHFTEI (also called KYKDHFTEI) [MAGEB1-001] ?
> 75%

So what does the record say about peptide exchange yield for TYIDFVPYI (also called TYIDFVPYI) [TEX15-001] ?
> 75%

So what does the record say about peptide exchange yield for VYAVSSDRF (also called VYAVSSDRF) [DCX-001] ?
> 75%
